Test system: Mus musculus
assay.info: Analgesic activity in po dosed mouse assessed as inhibition of phenylquinone-induced writhing measured up to 10 mins relative to aspirin
Format: functional
Catalogue of Ratio readings, one per entry.
I'd appreciate a reply containing only the number, no unit.

Consider the worked cases shown below.
molecule	test.result
CC(C(=O)O)c1ccc2c(=O)c3ccccc3ccc2c1 (single isomer, unassigned; (+))	20
C=C(C(=O)O)c1ccc2c(=O)c3ccccc3ccc2c1	1

Exercise: Look at this molecule and give its reported Ratio. CC(C(=O)O)c1ccc2c(=O)c3ccccc3ccc2c1 (single isomer, unassigned; (-))
Solution: 1.5

Exercise: Look at this molecule and give its reported Ratio. CCC(C(=O)O)c1ccc2c(=O)c3ccccc3ccc2c1 (racemic)
Solution: 2

Exercise: Look at this molecule and give its reported Ratio. CC(C(=O)OCCN(C)C)c1ccc2c(=O)c3ccccc3ccc2c1 (racemic)
Solution: 7

Exercise: Look at this molecule and give its reported Ratio. CC(C)CCOC(=O)C(C)c1ccc2c(=O)c3ccccc3ccc2c1 (racemic)
Solution: 1.7

---

Tested on: Mus musculus
assay.info: Analgesic activity in po dosed mouse assessed as inhibition of phenylquinone-induced writhing measured up to 10 mins relative to aspirin
Type: functional
assay.endpoint: Ratio

molecule	Ratio
CCN(C)CCOC(=O)C(C)c1ccc2c(=O)c3ccccc3ccc2c1 (racemic)	<2

Exercise: Look at this molecule and give its reported Ratio. CC(C(=O)OCCN1CCOCC1)c1ccc2c(=O)c3ccccc3ccc2c1.Cl (racemic)
Solution: <1

Exercise: Look at this molecule and give its reported Ratio. CCCCCCCCCCCCOC(=O)C(C)c1ccc2c(=O)c3ccccc3ccc2c1 (racemic)
Solution: <0.5

Exercise: Look at this molecule and give its reported Ratio. "COC(=O)Cc1ccc2c(=O)c3ccccc3ccc2c1"
Solution: <1

Exercise: Look at this molecule and give its reported Ratio. CCCCCCCCCCCCCCCCCCCCOC(=O)C(C)c1ccc2c(=O)c3ccccc3ccc2c1 (racemic)
Solution: <0.5
